assay: E. coli Tat export inhibitors, primary screen, MC4100, TorA-mCherry reporter, fluorescence, single point (AID 488895); details: at 10 µM, hits give high values;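 note: exported cargo escapes ClpAP degradation while cytoplasmic cargo is degraded and loses fluorescence; 0% = median of neutral control wells and 100% = median of NaSCN control wells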
Screen size: about 340,000 compounds; about 120 (0.035%) were called active. The sample as a whole holds a higher share of actives than the screen did.
Quantity Kind: inhibition (%)
Quick reminder: number only, in %, skip the unit.

Known results for compounds:
>  <Compound>
c1ccc2c(-c3nn4nnnc4c4ccccc34)cccc2c1

>  <Scale Unit>
%

>  <Reading>
13.5

$$$$
>  <Compound>
NC(=O)C[C@@H]1NC(=O)CNC(=O)c2cc([N+](=O)[O-])cc(I)c2NCCC(C(N)=O)NC1=O (some centres undefined)

>  <Scale Unit>
%

>  <Reading>
-3.55

$$$$
>  <Compound>
CCn1cc(C(=O)NCCO)c(=O)c2cc(F)c(N3CCN(C)CC3)cc21

>  <Scale Unit>
%

>  <Reading>
81.4

$$$$
>  <Compound>
CCn1cc(S(=O)(=O)c2cccc(C)c2)c(=O)c2cc(F)c(N3CCN(C)CC3)cc21

>  <Scale Unit>
%

>  <Reading>
-3.59

$$$$
>  <Compound>
Cc1cc(N2CCCC2=O)cc(C)c1S(N)(=O)=O

>  <Scale Unit>
%

>  <Reading>
-6.67

$$$$
>  <Compound>
O=C(CNC(=O)OCc1ccccc1)NC1CCCCNC1=O (centres undefined)

>  <Scale Unit>
%

>  <Reading>
10.8

$$$$

For the compound shown here, O=C(c1cn(-c2ccccc2)nc1-c1cccnc1)N1CCN(S(=O)(=O)c2ccccc2F)CC1 , give the reported inhibition.
7.82

If you can, please state the reported inhibition value of O=C(NCc1ccccc1)c1onc(CSc2ccncc2)c1C(=O)NCc1ccccc1 .
4.39

GET /values?readout=inhibition&item= CCn1cc(/C=C(\NC(=O)c2cc(OC)c(OC)c(OC)c2)C(=O)N2CCN(C)CC2)c2ccccc21
6.75

Consider the compound O=C(Nc1nnc(C2=COCCO2)o1)c1ccc([N+](=O)[O-])s1 and give its measured inhibition.
-7.65

GET /values?readout=inhibition&item= COCCCn1c(SCc2cccc(OC)c2)nc2cc(OC)c(OC)cc2c1=N
8.62

====

assay: E. coli Tat export inhibitors, primary screen, MC4100, TorA-mCherry reporter, fluorescence, single point (AID 488895); conditions: at 10 µM;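 note: exported cargo escapes ClpAP degradation while cytoplasmic cargo is degraded and loses fluorescence; 0% = median of neutral control wells and 100% = median of NaSCN control wells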
About 120 (0.035%) of roughly 340,000 compounds were called active.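 The calls were made as follows: active = mean replicate inhibition at least 50% and at least half of replicates individually reaching 50%; inconclusive = only one of the two criteria met; inactive = neither criterion met.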 The entries come from a sample that favours actives as a whole.
Choose the fitting class; nothing outside T = active, F = inactive is accepted.

Consider the worked cases shown below.
>  <Molecule>
CC1(C)CC(=O)C(N=Nc2c(F)cccc2F)=C(O)C1

>  <Cat>
F

$$$$
>  <Molecule>
C=CCn1c(SCC(=O)Nc2ccc(NC(C)=O)cc2)nc2sc(C)c(C)c2c1=O

>  <Cat>
F

$$$$
>  <Molecule>
COc1cccc(-c2ccc(SCC(=O)N3CCN(c4ccccc4)CC3)nn2)c1

>  <Cat>
F

$$$$
>  <Molecule>
O=C(NC(=S)NC1CCSC1=O)c1ccccc1F (stereo not drawn)

>  <Cat>
F

$$$$
>  <Molecule>
CCCCCCn1cc(C(=O)O)c(=O)c2cc(F)c(N3CCCCC3)cc21

>  <Cat>
F

$$$$

Short answer needed: outcome of this test for CCn1cc(C(=O)NCCC(=O)NCCO)c(=O)c2cc3c(cc21)OCO3 ?
F

Would you mind telling me which call this test gave CN1CCN(c2cc3c(cc2F)c(=O)c(C(=O)O)cn3CCF)CC1 ?
T

What classification did COc1ccc(N2CC(C(=O)NCCN3C(=O)S/C(=C\c4cccnc4)C3=O)CC2=O)c(OC)c1 (stereo not drawn) end up with in this test?
F
